- Tested on: SF-268 CNS
- Experimental Protocol: NCI-60 one-dose screen, 48 h
- Cond: 10 µM unless noted
About 83,000 compounds went through this panel and 20% of them were active in at least one assay; those are over-represented in the sample as a whole. The source made the active and inactive calls. The calls were made as follows: active = growth percent below 10; inactive = the rest.
In this exercise, the only acceptable responses are True for active, False for inactive

{"Compound": "CCOc1cc2ncc(C#N)c(Nc3ccc(F)c(Cl)c3)c2cc1NC(=O)CC1CCSS1 (centres undefined)", "Discrete Label": "True"}
{"Compound": "O=C(Cc1ccc(/C=C/C(=O)c2ncc[nH]2)cc1)Nc1ccccc1", "Discrete Label": "False"}
{"Compound": "O=c1cc(/C(=C2/C=CC=N2)c2ccc[nH]2)c2cc(Cl)ccc2o1", "Discrete Label": "False"}
{"Compound": "COc1ccc2[nH]cc(-c3noc(C(=O)c4cn(C)c5ccc(F)cc45)n3)c2c1", "Discrete Label": "False"}
{"Compound": "COc1cccc(Nc2nc(SC)nc(-c3cccc([N+](=O)[O-])c3)c2C#N)c1", "Discrete Label": "False"}

Ask | Please state the recorded outcome for this compound: "NC(=O)c1cc(Cl)ccc1NC(=O)/C=C/c1ccccc1"
Reply | False

Ask | Let us now turn to "Cc1cc(C)nc(SC2=C(Nc3ccc(C)c(Cl)c3)C(=O)N(Cc3ccccc3)C2=O)n1"
Reply | False

Ask | Follow-up item: "O=C1c2cc3c(cc2-c2c1c1ccc(F)cc1c(=O)n2CCCNCCO)OCO3"
Reply | True

Ask | Another compound to look at: COc1cccc2c1C(=O)c1c(O)c3c(c(O)c1C2=O)C[C@](O)(C(=O)CO)C[C@H]3O[C@@H]1C[C@@H](NC(=O)CCCCCN(C)C2(c3ccc(F)cc3)CC3CCC2C3)[C@H](O)[C@@H](C)O1 (some centres undefined)
Reply | False

----------
- Tested on: NCI-H522 lung
- Experimental Protocol: NCI-60 one-dose screen, 48 h
- Cond: 10 µM unless noted
- Description: Growth inhibition of the NCI-H522 human Non-Small Cell Lung tumor cell line is measured as a screen for anti-cancer activity. Cells are grown in 96 well plates and exposed to the test compound for 48 hours. Compounds are tested at a single concentration, which is 10^-5 M for most compounds. The reported endpoint is percent growth (GI% or GIPRCNT), where numbers from 0 - 100% represent growth inhibition, and numbers from -100% - 0 represent cell death. […]
About 83,000 compounds went through this panel and 20% of them were active in at least one assay; those are over-represented in the sample as a whole. Active and inactive are the calls of the source. The calls were made as follows: active = growth percent below 10; inactive = the rest.
Tick one outcome: active, inactive

The examples below pair each entry with its known result.
{"Molecule": "O=[N+]([O-])c1ccc2c(c1)Cc1cc(F)ccc1-2", "Discrete Label": "inactive"}
{"Molecule": "O=C1NC(=S)N[C@H]1CC(=O)n1cnc2ccccc21", "Discrete Label": "inactive"}

Ask | Write down the call the test reported for this molecule. Item: "CCOC(=O)c1c(C)oc2ncnc(N3CCN(C(=O)COc4ccc(SC)cc4)CC3)c12"
Reply | inactive

Ask | And the next one, CCn1c(O)c(/C=N/NC(=O)C(C)c2ccc(CC(C)C)cc2)sc1=S (configuration not stated) ?
Reply | active

Ask | And the next one, "Nc1nc2ncc(CCNc3ccc(C(=O)O)cc3)nc2c(=O)[nH]1" ?
Reply | inactive

Ask | Moving on to the next molecule: "N=C(N)c1ccc(-c2ccc(-c3ccc4ccccc4c3)s2)s1"
Reply | inactive

Ask | Please answer likewise for "O=C1c2cc3c(cc2-c2c1c1ccc(F)cc1c(=O)n2C[C@H](O)[C@H](O)[C@H](O)CO)OCO3"
Reply | active

Ask | Please do the same for "Cc1cc(C)nc(SC2=C(Nc3cc(Cl)ccc3O)C(=O)N(Cc3ccccc3)C2=O)n1" as well.
Reply | inactive

Ask | Another molecule to look at: "NNCCc1ccc(NC(=O)CCCc2ccc(/C=C/C(=O)NO)cc2)cc1"
Reply | inactive

Ask | Moving on to the next molecule: "O=C(O)c1c(=O)cccc2ssc12"
Reply | active

Ask | Further, for "Nc1ccn(-c2ccc(Br)cc2)c(=O)n1" ?
Reply | inactive

Ask | Then what about the molecule CCOc1cc2ncc(C#N)c(Nc3ccc(OCc4cccc(F)c4)c(Cl)c3)c2cc1NC(=O)CC1CCSS1 (configuration not stated) ?
Reply | inactive

Ask | Now the molecule "NC(=NCCCC1(c2ccccc2)CCCC1)Nc1ccc(Cl)cc1"
Reply | inactive

Ask | Repeat for the following molecule: "C=C(C)C(=O)Nc1ccc(NC(C)C)cc1"
Reply | inactive

Ask | Input "COc1ccc(-c2nnc(SCC(=O)c3ccc(Cl)cc3)o2)cc1"
Reply | inactive

Ask | Next record, please: "COc1ccc(/C=C(\C#N)C(=O)Nc2cccc(Nc3nc(SC)nc(-c4cccc([N+](=O)[O-])c4)c3C#N)c2)cc1OC"
Reply | inactive

Ask | Item: CC(O)CN(CC(C)O)c1ccc2c(c1)Cc1cc([N+](=O)[O-])ccc1-2 (configuration not stated)
Reply | inactive
